- ASSAY_PROTOCOL: Stability of analytes in rat plasma QC samples under storage conditions
- Assay type: in vitro ADME
- CONDITION_SUMMARY: prepared rat plasma samples, n=6; low QC: spiked 20 ng/mL glycyrrhizic acid; 10 liquiritin; 2 emodin, gallic acid, ononin, schisandrin, stilbene glycoside; 1 isoliquiritigenin, liquiritigenin, rhein, verbascoside
I'd be grateful if you could share measured Measured Concentration, auto-sampler for 12 h for these entries.
Give bare numbers, in ng/mL.

O=C1C[C@@H](c2ccc(O)cc2)Oc2cc(O)ccc21
0.87

Hi! Can you tell me Measured Concentration, auto-sampler for 12 h for each of these compounds?
1. O=C(/C=C/c1ccc(O)cc1)c1ccc(O)cc1O
2. COc1cc2c(c(OC)c1OC)-c1c(cc(OC)c(OC)c1OC)C[C@](C)(O)[C@@H](C)C2
3. C[C@@H]1O[C@@H](O[C@@H]2[C@@H](O)[C@H](OCCc3ccc(O)c(O)c3)O[C@H](CO)[C@H]2OC(=O)/C=C/c2ccc(O)c(O)c2)[C@H](O)[C@H](O)[C@H]1O [verbascoside]
4. O=C1C[C@@H](c2ccc(O[C@@H]3O[C@H](CO)[C@@H](O)[C@H](O)[C@H]3O)cc2)Oc2cc(O)ccc21

1: 1.00; 2: 1.83; 3: 1.05; 4: 10.26

Record Measured Concentration, auto-sampler for 12 h per entry; entries follow.
1. CC1(C)[C@@H](O[C@H]2O[C@H](C(=O)O)[C@@H](O)[C@H](O)[C@H]2O[C@@H]2O[C@H](C(=O)O)[C@@H](O)[C@H](O)[C@H]2O)CC[C@]2(C)[C@H]3C(=O)C=C4[C@@H]5C[C@@](C)(C(=O)O)CC[C@]5(C)CC[C@@]4(C)[C@]3(C)CC[C@@H]12
2. COc1ccc(-c2coc3cc(O[C@@H]4O[C@H](CO)[C@@H](O)[C@H](O)[C@H]4O)ccc3c2=O)cc1

1: 19.25; 2: 1.83

Okay, here is my list. What is Measured Concentration, auto-sampler for 12 h for each of these?
1. O=C(O)c1cc(O)c(O)c(O)c1
2. O=C(O)c1cc(O)c2c(c1)C(=O)c1cccc(O)c1C2=O
3. OC[C@H]1O[C@@H](Oc2c(O)cc(O)cc2/C=C/c2ccc(O)cc2)[C@H](O)[C@@H](O)[C@@H]1O [stilbene glycoside]
4. Cc1cc(O)c2c(c1)C(=O)c1cc(O)cc(O)c1C2=O

[2.03, 0.97, 1.89, 1.93]
